System: NCI-H647
Experiment: relative viability (nuclei count vs DMSO), 5 days (fraction); higher = more cells survive
Conditions: first compound 0.01 µM
Let's look at some compounds and their measured relative viability.
Give only the figure.

Consider the worked cases shown below.
1) O=c1cc(N2CCOCC2)oc2c(-c3cccc4c3sc3ccccc34)cccc12 + C[C@]1(O)C[C@@H](c2nc(-c3ccc4ccc(-c5ccccc5)nc4c3)c3c(N)nccn32)C1 [Linsitinib] (partner 1 µM) :: 1.02
2) O=c1cc(N2CCOCC2)oc2c(-c3cccc4c3sc3ccccc34)cccc12 + N=C(N)NC(=N)NCCc1ccccc1 [Phenformin] (partner 250 µM) :: 0.547

Kindly review the next compound as well.
What measured relative viability is associated with O=c1cc(N2CCOCC2)oc2c(-c3cccc4c3sc3ccccc34)cccc12 + Cc1cc(Nc2cc(N3CCN(C)CC3)nc(Sc3ccc(NC(=O)C4CC4)cc3)n2)n[nH]1 [Tozasertib] (partner 0.1 µM) on NCI-H647?
0.369

----------
Tested on: NCI-H460
Experiment: relative viability (nuclei count vs DMSO), 5 days (fraction); higher = more cells survive
Conditions: first compound 0.1 µM
# Lookup of reported relative viability keyed by entry
Keep it simple and answer with nothing but the number.

These solved cases illustrate the format of a correct answer.
1. O=c1cc(N2CCOCC2)oc2c(-c3cccc4c3sc3ccccc34)cccc12 + Nc1ncn([C@H]2C[C@H](O)[C@@H](CO)O2)c(=O)n1 [Decitabine] (partner 2 µM) :: 0.499
2. O=c1cc(N2CCOCC2)oc2c(-c3cccc4c3sc3ccccc34)cccc12 + CS(=O)(=O)CCNCc1ccc(-c2ccc3ncnc(Nc4ccc(OCc5cccc(F)c5)c(Cl)c4)c3c2)o1 [Lapatinib] (partner 2 µM) :: 1.09
3. O=c1cc(N2CCOCC2)oc2c(-c3cccc4c3sc3ccccc34)cccc12 + COc1cccc2cc(-c3nc([C@H]4CC[C@H](C(=O)O)CC4)n4ncnc(N)c34)[nH]c12 [OSI-027] (partner 0.5 µM) :: 0.683
4. CCN(CC)CCCCNc1ncc2cc(-c3cc(OC)cc(OC)c3)c(NC(=O)NC(C)(C)C)nc2n1 + O=C(CCCCCCC(=O)Nc1ccccc1)NO [Vorinostat] (partner 1 µM) :: 1.39

Let us move to another entry and its relative viability.
Quick one: relative viability for CCN(CC)CCCCNc1ncc2cc(-c3cc(OC)cc(OC)c3)c(NC(=O)NC(C)(C)C)nc2n1 + COc1cc2c(Oc3ccc(NC(=O)C4(C(=O)Nc5ccc(F)cc5)CC4)cc3F)ccnc2cc1OCCCN1CCOCC1 [Foretinib] (partner 0.25 µM) ?
1.03

----------
Test system: ABC-1
Test: relative viability (nuclei count vs DMSO), 5 days (fraction); higher = more cells survive
Settings: first compound 0.03162 µM
Criterion: relative viability strictly less than 1. Met: T. Not met: F.

Observe how each entry below is paired with its result.
1) CCN(CC)CCCCNc1ncc2cc(-c3cc(OC)cc(OC)c3)c(NC(=O)NC(C)(C)C)nc2n1 + CS(=O)(=O)N1CCN(Cc2cc3nc(-c4cccc5[nH]ncc45)nc(N4CCOCC4)c3s2)CC1 [Pictilisib] (partner 1 µM) :: T
2) CCN(CC)CCCCNc1ncc2cc(-c3cc(OC)cc(OC)c3)c(NC(=O)NC(C)(C)C)nc2n1 + COc1cccc2cc(-c3nc([C@H]4CC[C@H](C(=O)O)CC4)n4ncnc(N)c34)[nH]c12 [OSI-027] (partner 0.5 µM) :: T
3) O=c1cc(N2CCOCC2)oc2c(-c3cccc4c3sc3ccccc34)cccc12 + O=C(CCCCCCC(=O)Nc1ccccc1)NO [Vorinostat] (partner 1 µM) :: F

--- query ---
Field: below-cutoff. Rule: recorded relative viability strictly less than 1. Subject: CCN(CC)CCCCNc1ncc2cc(-c3cc(OC)cc(OC)c3)c(NC(=O)NC(C)(C)C)nc2n1 + CC(=O)c1c(C)c2cnc(Nc3ccc(N4CCNCC4)cn3)nc2n(C2CCCC2)c1=O [Palbociclib] (partner 0.5 µM)
T

----------
System: NCI-H1355
Assay: relative viability (nuclei count vs DMSO), 5 days (fraction); higher = more cells survive
Conditions: first compound 6.325 µM
Overview of recorded relative viability for various molecules
# output: bare number, no unit

These solved cases illustrate the format of a correct answer.
1. COCC1(CO)C(=O)C2CCN1CC2 (centres undefined) [PRIMA-1MET] + CC(C)C[C@H](NC(=O)[C@H](Cc1ccccc1)NC(=O)c1cnccn1)B(O)O [Bortezomib] (partner 0.002 µM) :: 1.31
2. COCC1(CO)C(=O)C2CCN1CC2 (centres undefined) [PRIMA-1MET] + N=C(N)NC(=N)NCCc1ccccc1 [Phenformin] (partner 250 µM) :: 0.46
3. COCC1(CO)C(=O)C2CCN1CC2 (centres undefined) [PRIMA-1MET] + O=C(CCCCCCC(=O)Nc1ccccc1)NO [Vorinostat] (partner 1 µM) :: 0.671

Let us examine a further case.
If you can, please state the reported relative viability value of COCC1(CO)C(=O)C2CCN1CC2 (centres undefined) [PRIMA-1MET] + C[C@@H](Oc1cc(-c2cnn(C3CCNCC3)c2)cnc1N)c1c(Cl)ccc(F)c1Cl [Crizotinib] (partner 1 µM) .
1.05

----------
# reported relative viability; entries follow
Test system: A-427
Assay: relative viability (nuclei count vs DMSO), 5 days (fraction); higher = more cells survive
Details: first compound 0.253 µM
Answer with a number only.

1. O=c1cc(-c2cccc3c2Sc2ccccc2S3)oc(N2CCOCC2)c1 + COc1cccc2cc(-c3nc([C@H]4CC[C@H](C(=O)O)CC4)n4ncnc(N)c34)[nH]c12 [OSI-027] (partner 0.5 µM) :: 0.48
2. COc1nc(C)cnc1NS(=O)(=O)c1cccnc1-c1ccc(-c2nnco2)cc1 [Zibotentan] + Cc1cc(Nc2cc(N3CCN(C)CC3)nc(Sc3ccc(NC(=O)C4CC4)cc3)n2)n[nH]1 [Tozasertib] (partner 0.1 µM) :: 0.205

Dear colleague, I am looking for the recorded relative viability of the following compound: COc1nc(C)cnc1NS(=O)(=O)c1cccnc1-c1ccc(-c2nnco2)cc1 [Zibotentan] + CCNC(=O)c1noc(-c2cc(C(C)C)c(O)cc2O)c1-c1ccc(CN2CCOCC2)cc1 [Luminespib] (partner 0.01 µM)
0.857

----------
Tested on: HCC-15
Experiment: relative viability (nuclei count vs DMSO), 5 days (fraction); higher = more cells survive
Conditions: first compound 0.08 µM
Entries and their relative viability values follow.
Respond using a number only.

Example cases with answers are listed next.
1) O=c1cc(-c2cccc3c2Sc2ccccc2S3)oc(N2CCOCC2)c1 + C[C@@H](Oc1cc(-c2cnn(C3CCNCC3)c2)cnc1N)c1c(Cl)ccc(F)c1Cl [Crizotinib] (partner 1 µM) :: 0.952
2) O=c1cc(-c2cccc3c2Sc2ccccc2S3)oc(N2CCOCC2)c1 + COc1cccc2cc(-c3nc([C@H]4CC[C@H](C(=O)O)CC4)n4ncnc(N)c34)[nH]c12 [OSI-027] (partner 0.5 µM) :: 0.633
3) COc1nc(C)cnc1NS(=O)(=O)c1cccnc1-c1ccc(-c2nnco2)cc1 [Zibotentan] + CS(=O)(=O)CCNCc1ccc(-c2ccc3ncnc(Nc4ccc(OCc5cccc(F)c5)c(Cl)c4)c3c2)o1 [Lapatinib] (partner 2 µM) :: 0.954

I'm curious: which relative viability was measured for COc1nc(C)cnc1NS(=O)(=O)c1cccnc1-c1ccc(-c2nnco2)cc1 [Zibotentan] + CC(=O)c1c(C)c2cnc(Nc3ccc(N4CCNCC4)cn3)nc2n(C2CCCC2)c1=O [Palbociclib] (partner 0.5 µM) tested on HCC-15?
0.796

Report relative viability for O=c1cc(-c2cccc3c2Sc2ccccc2S3)oc(N2CCOCC2)c1 + CC(=O)c1c(C)c2cnc(Nc3ccc(N4CCNCC4)cn3)nc2n(C2CCCC2)c1=O [Palbociclib] (partner 0.5 µM) tested on HCC-15.
0.796

----------
Tested on: HCC-827
Assay: relative viability (nuclei count vs DMSO), 5 days (fraction); higher = more cells survive
Conditions: first compound 8 µM
# relative viability per record follows
Give a plain numeric answer without units written out.

Known results for molecules:
1. O=c1cc(-c2cccc3c2Sc2ccccc2S3)oc(N2CCOCC2)c1 + CC(=O)c1c(C)c2cnc(Nc3ccc(N4CCNCC4)cn3)nc2n(C2CCCC2)c1=O [Palbociclib] (partner 0.5 µM) :: 0.442
2. O=c1cc(-c2cccc3c2Sc2ccccc2S3)oc(N2CCOCC2)c1 + C[C@]1(O)C[C@@H](c2nc(-c3ccc4ccc(-c5ccccc5)nc4c3)c3c(N)nccn32)C1 [Linsitinib] (partner 1 µM) :: 0.915
3. O=c1cc(-c2cccc3c2Sc2ccccc2S3)oc(N2CCOCC2)c1 + COc1cc2c(Oc3ccc(NC(=O)C4(C(=O)Nc5ccc(F)cc5)CC4)cc3F)ccnc2cc1OCCCN1CCOCC1 [Foretinib] (partner 0.25 µM) :: 1.02

Let us examine a further case.
Recorded relative viability for O=c1cc(-c2cccc3c2Sc2ccccc2S3)oc(N2CCOCC2)c1 + Nc1ncn([C@H]2C[C@H](O)[C@@H](CO)O2)c(=O)n1 [Decitabine] (partner 2 µM) , please?
0.344
